# test target: ROCK2 (Homo sapiens, UniProt O75116)
# Sequence (O75116 whole entry): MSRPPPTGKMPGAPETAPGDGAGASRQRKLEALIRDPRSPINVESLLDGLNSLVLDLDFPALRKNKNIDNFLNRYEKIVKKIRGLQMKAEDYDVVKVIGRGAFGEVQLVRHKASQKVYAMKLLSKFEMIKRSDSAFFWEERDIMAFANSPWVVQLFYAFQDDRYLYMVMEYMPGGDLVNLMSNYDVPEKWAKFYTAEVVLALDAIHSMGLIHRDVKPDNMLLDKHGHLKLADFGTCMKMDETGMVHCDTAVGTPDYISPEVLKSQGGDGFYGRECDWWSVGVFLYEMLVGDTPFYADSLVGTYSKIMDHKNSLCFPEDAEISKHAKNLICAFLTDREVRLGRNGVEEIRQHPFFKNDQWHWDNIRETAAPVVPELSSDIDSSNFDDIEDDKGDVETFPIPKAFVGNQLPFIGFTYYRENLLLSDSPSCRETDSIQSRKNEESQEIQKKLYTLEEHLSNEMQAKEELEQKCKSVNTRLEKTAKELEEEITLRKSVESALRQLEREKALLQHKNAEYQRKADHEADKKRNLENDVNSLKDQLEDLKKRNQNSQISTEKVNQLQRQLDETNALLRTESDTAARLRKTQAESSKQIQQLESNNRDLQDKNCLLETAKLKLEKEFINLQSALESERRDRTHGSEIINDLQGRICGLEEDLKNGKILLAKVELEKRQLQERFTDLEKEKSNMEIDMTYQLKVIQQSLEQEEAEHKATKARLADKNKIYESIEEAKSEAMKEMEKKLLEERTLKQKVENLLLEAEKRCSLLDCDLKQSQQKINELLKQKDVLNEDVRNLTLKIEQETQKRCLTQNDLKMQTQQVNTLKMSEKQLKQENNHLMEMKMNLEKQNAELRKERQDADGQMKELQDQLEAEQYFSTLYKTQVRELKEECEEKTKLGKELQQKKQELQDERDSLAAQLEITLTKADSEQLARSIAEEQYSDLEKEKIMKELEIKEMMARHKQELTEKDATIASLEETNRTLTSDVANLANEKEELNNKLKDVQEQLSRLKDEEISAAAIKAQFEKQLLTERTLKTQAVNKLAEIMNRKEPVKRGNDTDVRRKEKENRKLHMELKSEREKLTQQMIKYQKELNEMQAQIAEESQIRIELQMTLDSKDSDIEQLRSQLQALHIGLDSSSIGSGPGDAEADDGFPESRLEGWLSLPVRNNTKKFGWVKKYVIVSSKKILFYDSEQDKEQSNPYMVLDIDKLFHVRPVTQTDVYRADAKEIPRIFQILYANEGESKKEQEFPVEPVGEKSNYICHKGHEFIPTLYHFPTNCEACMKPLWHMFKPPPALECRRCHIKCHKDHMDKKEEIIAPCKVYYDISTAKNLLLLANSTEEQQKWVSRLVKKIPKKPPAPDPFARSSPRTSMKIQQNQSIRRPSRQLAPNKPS
# assay overview: In vitro Rho kinase inhibitory activity assay, ADP-Glo, Method A (ATP 10 μM)
# Type: biochemical
# experimental setup: read-out: Method A ROCK 2 (Ki)
molecules and their reported Ki

Example cases with answers are listed next.
molecule	reading
Cc1cc(-c2cnc(NCc3cccc(C(=O)Nc4nc5c(s4)CN(C)CC5)c3)c3c2OCC3)ccn1 [Example 47]	3 to 30 nM
CN(C)CCn1ccc2cc(C(=O)Nc3cccc(CNc4ncc(-c5ccncc5)c5c4CCO5)c3)ccc21 [Example 39]	≤ 3 nM

Give the reported value of Ki for this record: CC(=O)Nc1cccc(CNc2ncc(-c3ccncc3)c3c2CC(C)O3)c1 (centres unmarked) [Example 55]
3 to 30 nM

Return reported Ki. Input molecule: CC1CCN(CCC(=O)Nc2cccc(CNc3ncc(-c4ccncc4)c4c3CCO4)c2)CC1 [Example 32]
3 to 30 nM

Name the recorded Ki of the molecule listed here: CN(C)Cc1nc(C(=O)Nc2cccc(CNc3ncc(-c4ccncc4)c4c3CCO4)c2)cs1 [Example 53]
3 to 30 nM

Give a short answer stating reported Ki for O=C(NCCN1CCCCC1)c1cccc(CNc2ncc(-c3ccncc3)c3c2CCO3)c1 [Example 30] .
≤ 3 nM

For the molecule CN1CCc2nc(C(=O)Nc3cccc(CNc4ncc(-c5ccncc5)c5c4CCO5)c3)sc2C1 [Example 34] , give its measured Ki value.
≤ 3 nM

Give a short answer stating reported Ki for O=C(Nc1cccc(CNc2ncc(-c3ccncc3)c3c2CCO3)c1)c1nc2c(s1)CN(C1COC1)CC2 [Example 38] .
≤ 3 nM

----------
# test target: UniProtKB Q13464
# Sequence (Q13464 whole entry): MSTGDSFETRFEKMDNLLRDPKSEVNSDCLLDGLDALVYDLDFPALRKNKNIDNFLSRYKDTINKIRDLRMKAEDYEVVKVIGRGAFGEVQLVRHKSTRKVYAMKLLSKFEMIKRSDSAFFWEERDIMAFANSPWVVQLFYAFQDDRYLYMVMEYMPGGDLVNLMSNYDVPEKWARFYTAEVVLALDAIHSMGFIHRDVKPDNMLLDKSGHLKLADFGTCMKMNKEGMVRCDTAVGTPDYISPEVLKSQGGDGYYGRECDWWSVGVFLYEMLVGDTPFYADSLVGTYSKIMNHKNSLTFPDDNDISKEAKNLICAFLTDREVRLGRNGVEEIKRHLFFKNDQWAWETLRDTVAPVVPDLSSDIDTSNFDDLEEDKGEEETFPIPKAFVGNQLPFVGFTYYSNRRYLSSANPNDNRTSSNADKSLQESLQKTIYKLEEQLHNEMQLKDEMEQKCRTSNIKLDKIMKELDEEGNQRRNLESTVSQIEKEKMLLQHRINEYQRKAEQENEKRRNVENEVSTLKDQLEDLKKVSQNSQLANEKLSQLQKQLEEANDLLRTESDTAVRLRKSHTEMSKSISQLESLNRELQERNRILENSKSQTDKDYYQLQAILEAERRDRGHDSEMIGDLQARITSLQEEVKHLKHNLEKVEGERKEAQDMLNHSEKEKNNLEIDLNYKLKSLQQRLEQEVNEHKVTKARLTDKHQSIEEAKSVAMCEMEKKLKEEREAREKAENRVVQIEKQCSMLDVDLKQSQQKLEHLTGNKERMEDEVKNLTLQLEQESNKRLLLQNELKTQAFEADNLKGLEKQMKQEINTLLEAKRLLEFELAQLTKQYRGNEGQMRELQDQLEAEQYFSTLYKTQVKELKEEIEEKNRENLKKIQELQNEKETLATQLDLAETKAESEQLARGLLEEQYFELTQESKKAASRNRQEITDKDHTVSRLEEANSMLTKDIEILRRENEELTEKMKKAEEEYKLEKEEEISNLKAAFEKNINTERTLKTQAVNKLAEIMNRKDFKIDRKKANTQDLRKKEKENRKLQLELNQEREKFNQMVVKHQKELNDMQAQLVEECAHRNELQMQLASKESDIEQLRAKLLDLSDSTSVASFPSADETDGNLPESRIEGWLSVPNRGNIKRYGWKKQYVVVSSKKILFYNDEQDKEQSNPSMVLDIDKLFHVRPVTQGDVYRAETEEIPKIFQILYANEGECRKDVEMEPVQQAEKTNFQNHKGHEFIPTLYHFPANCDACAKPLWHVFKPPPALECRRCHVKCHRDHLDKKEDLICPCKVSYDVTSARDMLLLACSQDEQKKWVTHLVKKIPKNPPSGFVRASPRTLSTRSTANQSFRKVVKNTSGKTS
# assay overview: In vitro Rho kinase inhibitory activity assay, ADP-Glo, Method B (ATP 200 μM)
# Assay type: biochemical
# experimental setup: read-out: Method B ROCK 1 (Ki)
pKi: −log10 of the molar value.
measurement type: pKi

Examples with their reported pKi follow.
molecule	measurement type	reading
O=C(NC1CC(CO)C1)c1cccc(CNc2ncc(-c3ccncc3)c3c2CCO3)c1 (stereo not drawn)	pKi	7.52 to 8.52
CNC(=O)c1cccc(CNc2ncc(-c3ccnc(N)c3F)c3c2CCO3)c1	pKi	7.52 to 8.52
CN1CCN(CCCC(=O)Nc2cccc(CNc3ncc(-c4ccncc4)c4c3CCO4)c2)CC1	pKi	≥ 8.52

Given the molecule CNC(=O)c1cccc(CNc2ncc(-c3cc[nH]c(=O)c3)c3c2CCO3)c1 [Example B, reference compound] , write its reported pKi.
< 7.52

// Input: Cc1cc(CNC(=O)c2cccc(CNc3ncc(-c4ccncc4)c4c3CCO4)c2)no1 . Output its pKi only.
7.52 to 8.52

Answer with reported pKi of O=C(Nc1ncc(CN2CCCC2)s1)c1cccc(CNc2ncc(-c3ccncc3)c3c2CCO3)c1
≥ 8.52

----------
# test target: UniProt:Q13464
# assay overview: In vitro Rho kinase inhibitory activity assay, ADP-Glo, Method A (ATP 10 μM)
# Assay type: biochemical
# experimental setup: read-out: Method A ROCK 1 (Ki)
The entries below are paired with their reported Ki.

Example entries begin here.
line notation	test target	measurement type	reading
CN1CCN(CCCC(=O)Nc2cccc(CNc3ncc(-c4ccncc4)c4c3CCO4)c2)CC1	UniProt:Q13464	Ki	≤ 3 nM
CN1CCc2nc(NC(=O)c3ccnc(CNc4ncc(-c5ccncc5)c5c4CCO5)c3)sc2C1	UniProt:Q13464	Ki	3 to 30 nM

# assay system UniProt:Q13464: give Ki of CC1CCN(CCC(=O)Nc2cccc(CNc3ncc(-c4ccncc4)c4c3CCO4)c2)CC1
3 to 30 nM

----------
# test target: ROCK2 (Homo sapiens)
# assay overview: In vitro Rho kinase inhibitory activity assay, ADP-Glo, Method B (ATP 200 μM)
# Assay type: biochemical
# experimental setup: read-out: Method B ROCK 2 (Ki)
# Method: In Vitro Inhibitory Activity Assay Description (Method B) The effectiveness of compounds of the present invention to inhibit Rho kinase activity can be determined in a 10 μL assay containing 40 mM Tris pH7.5, 20 mM MgCl2 0.1 mg/mL BSA, 50 μM DTT and 2.5 μM peptide substrate (Myelin Basic Protein) using an ADP-Glo kit (Promega). Compounds were dissolved in DMSO such that the final concentration of DMSO was 1% in the assay. […] The luminescent signal was measured on a luminometer. […]
pKi: −log10 of the molar value.
Form field: pKi (one value per entry).

Worked set:
line notation	measurement type	reading
COc1cc(NC(=O)c2cccc(CNc3ncc(-c4ccncc4)c4c3CCO4)c2)ncn1	pKi	≥ 8.52
CN(C)CCOc1ccc(NC(=O)c2cccc(CNc3ncc(-c4ccncc4)c4c3CCO4)c2)nc1	pKi	≥ 8.52
CNC(=O)c1cccc(CNc2ncc(-c3ccnc(N)c3F)c3c2CCO3)c1	pKi	7.52 to 8.52

Specify reported pKi for the compound shown: CN(C)CCn1cc(C(=O)Nc2cccc(CNc3ncc(-c4ccncc4)c4c3CCO4)c2)cn1
≥ 8.52

Where these numbers come from: patent US12534474B2
